tested on: c-Abl (mouse); assay: phosphorylation enrichment, bacterial display (enrichment ratio); higher = better substrate or ligand; peptides without Tyr show the background;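 note: 11-residue human phosphosite peptides and single-mutation variants displayed on the E. coli surface, counted by deep sequencing, each peptide's frequency after selection divided by its frequency in the unselected input library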;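 note: frequency after pTyr selection over input frequency; kinase dosed for 20-30% of maximal phosphorylation in three min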
Criterion: phosphorylation enrichment meeting or surpassing 0.7. Met: Criterion met. Not met: Criterion not met.

residues="FQSKHYACIRQ [TIMP3_Y182_YF]" category_label="Criterion not met"
residues="GREAEYSDKHG [EPHB4_Y574]" category_label="Criterion not met"
residues="KSNSDYVDVLP [SH2D1B_Y127_N122K]" category_label="Criterion not met"
residues="YPPTHYIRRMP [SLC4A11_Y820_V824M]" category_label="Criterion not met"
residues="KRLKDYLMVLQ [USP25_Y425_T427M]" category_label="Criterion not met"
residues="TSPKSYPSQKH [CAP2_Y316]" category_label="Criterion not met"
residues="YFVVEYRDQKP [MUC17_Y4332]" category_label="Criterion met"
residues=IETGRYEILTE category_label="Criterion met"
residues="IATAIYSGDKI [UGGT2_Y823]" category_label="Criterion not met"
residues="RPASQYPHQVP [ADAM12_Y895_P893S]" category_label="Criterion not met"
residues="FGGTVYHSPVS [PRC1_Y511]" category_label="Criterion met"
residues="NQDRTYYERVR [SPEN_Y632_S635R]" category_label="Criterion not met"

Hey, just so you know, these numbers are from the supplement of paper PMC10065799.
